biological target: α2 subtype containing GABA-A receptors (Homo sapiens, UniProt P18507+P47869); construct: expressed in transfected cells; host or cells: Xenopus laevis oocytes, cRNA injected; experiment: Two-electrode voltage clamp electrophysiology in Xenopus oocytes, potentiation of GABA EC20 response, α2; type: cell-based; conditions: 100 nM compound, read-out: Percentage of potentiation alpha2
Sequence (P47869 29-451): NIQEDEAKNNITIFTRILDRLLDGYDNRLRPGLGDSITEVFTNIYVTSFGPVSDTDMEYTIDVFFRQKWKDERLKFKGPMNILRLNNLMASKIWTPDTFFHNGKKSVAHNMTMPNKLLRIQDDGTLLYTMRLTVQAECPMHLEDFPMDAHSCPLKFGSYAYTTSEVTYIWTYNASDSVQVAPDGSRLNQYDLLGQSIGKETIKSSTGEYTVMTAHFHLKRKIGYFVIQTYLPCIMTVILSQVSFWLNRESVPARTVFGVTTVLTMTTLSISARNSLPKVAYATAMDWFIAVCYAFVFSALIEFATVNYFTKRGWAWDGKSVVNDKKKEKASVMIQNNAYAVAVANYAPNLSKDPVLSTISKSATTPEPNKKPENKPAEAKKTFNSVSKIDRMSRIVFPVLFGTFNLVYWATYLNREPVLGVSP
Sequence (P28472 26-473 partner): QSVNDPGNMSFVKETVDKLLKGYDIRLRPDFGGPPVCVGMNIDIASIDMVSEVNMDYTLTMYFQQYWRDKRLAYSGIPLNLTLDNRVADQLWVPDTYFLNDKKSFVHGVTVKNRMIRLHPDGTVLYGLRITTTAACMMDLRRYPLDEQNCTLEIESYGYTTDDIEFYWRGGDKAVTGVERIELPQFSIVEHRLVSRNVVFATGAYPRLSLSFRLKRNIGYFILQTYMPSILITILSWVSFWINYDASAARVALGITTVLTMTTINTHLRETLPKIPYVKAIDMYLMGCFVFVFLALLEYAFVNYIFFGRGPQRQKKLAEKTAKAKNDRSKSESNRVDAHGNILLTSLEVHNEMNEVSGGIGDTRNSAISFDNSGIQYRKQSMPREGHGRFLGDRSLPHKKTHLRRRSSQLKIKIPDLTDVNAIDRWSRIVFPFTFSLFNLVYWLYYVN
Sequence (P18507 40-475): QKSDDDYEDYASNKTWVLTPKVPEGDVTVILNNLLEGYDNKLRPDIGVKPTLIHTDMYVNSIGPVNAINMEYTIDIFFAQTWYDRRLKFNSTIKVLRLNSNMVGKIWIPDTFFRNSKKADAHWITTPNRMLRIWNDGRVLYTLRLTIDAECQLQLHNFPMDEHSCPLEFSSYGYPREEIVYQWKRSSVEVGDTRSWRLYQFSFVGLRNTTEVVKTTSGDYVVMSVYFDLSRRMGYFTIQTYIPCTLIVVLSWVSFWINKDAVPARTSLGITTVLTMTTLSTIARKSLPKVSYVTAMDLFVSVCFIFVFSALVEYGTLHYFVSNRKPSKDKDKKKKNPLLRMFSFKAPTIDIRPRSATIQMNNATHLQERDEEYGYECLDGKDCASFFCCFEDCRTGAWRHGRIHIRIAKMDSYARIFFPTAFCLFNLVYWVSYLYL
assay readout: activation at 0.1 µM

Sample answers from the record:
Cc1cc(Cl)nc(NCc2c(-c3ccc(Cl)cc3)nc3ccccn23)n1; 10 to 50%
CCNCc1ccnc(NCc2c(-c3ccc(F)cc3)nc3ccc(C)cn23)n1; ≥ 50%
O=c1nc(-n2cncn2)ccn1Cc1c(-c2ccc(Cl)cc2)nc2ccccn12; 10 to 50%
CNC(=O)c1ncn(Cc2c(-c3ccc(Cl)cc3)nc3ccccn23)n1; 10 to 50%
O=C1C=C(N2CCC(O)C2)CN1Cc1c(-c2ccc(Cl)cc2)nc2ccccn12 (stereo not drawn); 10 to 50%

Supply reported activation at 0.1 µM belonging to this compound: O=c1cc(Cl)n(Cc2c(-c3ccc(Cl)cc3)nc3ccccn23)c(=O)[nH]1
10 to 50%

----------
Below, each entry is listed alongside its reported activation at 0.1 µM.
Target: α3 subtype containing GABA-A receptors (Homo sapiens, UniProt P18507+P34903)
Construct: expressed in transfected cells; host or cells: Xenopus laevis oocytes, cRNA injected
Sequence (P34903 29-492): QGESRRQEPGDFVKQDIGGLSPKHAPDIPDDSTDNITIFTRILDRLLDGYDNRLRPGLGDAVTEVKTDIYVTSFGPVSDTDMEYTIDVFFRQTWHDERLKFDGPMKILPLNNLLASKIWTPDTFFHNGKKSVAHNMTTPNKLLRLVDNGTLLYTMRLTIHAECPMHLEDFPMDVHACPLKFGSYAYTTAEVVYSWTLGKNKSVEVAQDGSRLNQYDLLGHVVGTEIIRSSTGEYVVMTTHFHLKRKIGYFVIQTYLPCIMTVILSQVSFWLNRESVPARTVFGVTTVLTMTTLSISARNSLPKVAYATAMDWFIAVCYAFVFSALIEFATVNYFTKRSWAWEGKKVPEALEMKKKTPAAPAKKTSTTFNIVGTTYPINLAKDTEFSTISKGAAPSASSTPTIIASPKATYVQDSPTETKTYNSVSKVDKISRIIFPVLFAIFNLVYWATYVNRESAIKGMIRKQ
Sequence (P28472 26-473 partner): as the sequence (P28472 26-473 partner) above
Sequence (P18507 40-475): as the sequence (P18507 40-475) above
Experiment: Two-electrode voltage clamp electrophysiology in Xenopus oocytes, potentiation of GABA EC20 response, α3
Format: cell-based
Conditions: 100 nM compound, read-out: Percentage of potentiation alpha3
Experimental: Electrophysiology protocol: Oocytes were prepared from adult female Xenopus laevis frogs. cRNA encoding human α1, α2, α3, α5, β3 and γ2L GABAA receptor subunits was injected into the cytoplasm of stage 5 or 6 oocytes using the Robocyte Robot (Multi Channel Systems, Reutlingen, Germany). Two-electrode voltage clamp recordings were made in 96-well plates using the Robocyte Robot. […]

Sample answers from the record:
CC(C)OC(=O)c1ncnn1Cc1c(-c2ccc(Cl)cc2)nc2ccc(Cl)cn12; 10 to 50%
Cc1cc(Cl)nc(NCc2c(-c3ccc(Cl)cc3)nc3ccc(Cl)cn23)n1; 10 to 50%
CN1CC[C@@H](Oc2ccnc(NCc3c(-c4ccc(F)cc4)nc4ccc(Cl)cn34)n2)C1; -10 to 10%

Write down measured activation at 0.1 µM (α3 subtype containing GABA-A receptors (Homo sapiens, UniProt P18507+P34903)) for this compound. NNC(=O)c1nc(Cc2c(-c3ccc(Cl)cc3)nc3ccc(F)cn23)no1
10 to 50%

Write down measured activation at 0.1 µM (α3 subtype containing GABA-A receptors (Homo sapiens, UniProt P18507+P34903)) for this compound. O=c1n(Cc2c(-c3ccc(Cl)cc3)nc3ccccn23)nc2ccccn12
-10 to 10%

Write down measured activation at 0.1 µM (α3 subtype containing GABA-A receptors (Homo sapiens, UniProt P18507+P34903)) for this compound. Cc1nnc(Cc2c(-c3ccccc3)nc3ccc(Cl)cn23)o1
-10 to 10%

Write down measured activation at 0.1 µM (α3 subtype containing GABA-A receptors (Homo sapiens, UniProt P18507+P34903)) for this compound. CN(C)CCNC1=CC(=O)N(Cc2c(-c3ccc(Br)cc3)nc3ccccn23)C1
-10 to 10%

Write down measured activation at 0.1 µM (α3 subtype containing GABA-A receptors (Homo sapiens, UniProt P18507+P34903)) for this compound. Cc1ccnc(NCc2c(-c3ccccc3)nc3ccc(Cl)cn23)n1
10 to 50%

Write down measured activation at 0.1 µM (α3 subtype containing GABA-A receptors (Homo sapiens, UniProt P18507+P34903)) for this compound. NC(=O)c1ncn(Cc2c(-c3ccc(Cl)cc3)nc3ccccn23)n1
10 to 50%

Write down measured activation at 0.1 µM (α3 subtype containing GABA-A receptors (Homo sapiens, UniProt P18507+P34903)) for this compound. Clc1ccc(-c2nc3ccccn3c2Cn2nccn2)cc1
10 to 50%

Write down measured activation at 0.1 µM (α3 subtype containing GABA-A receptors (Homo sapiens, UniProt P18507+P34903)) for this compound. O=C1C=C(N2CCC(O)C2)CN1Cc1c(-c2ccc(Cl)cc2)nc2ccccn12 (stereo not drawn)
-10 to 10%

Write down measured activation at 0.1 µM (α3 subtype containing GABA-A receptors (Homo sapiens, UniProt P18507+P34903)) for this compound. CNc1ccn(Cc2c(-c3ccc(Cl)cc3)nc3ccccn23)c(=O)n1
-10 to 10%
